- target: GST-Dm-Relish (Drosophila melanogaster, UniProt Q94527 99-473)
- Sequence: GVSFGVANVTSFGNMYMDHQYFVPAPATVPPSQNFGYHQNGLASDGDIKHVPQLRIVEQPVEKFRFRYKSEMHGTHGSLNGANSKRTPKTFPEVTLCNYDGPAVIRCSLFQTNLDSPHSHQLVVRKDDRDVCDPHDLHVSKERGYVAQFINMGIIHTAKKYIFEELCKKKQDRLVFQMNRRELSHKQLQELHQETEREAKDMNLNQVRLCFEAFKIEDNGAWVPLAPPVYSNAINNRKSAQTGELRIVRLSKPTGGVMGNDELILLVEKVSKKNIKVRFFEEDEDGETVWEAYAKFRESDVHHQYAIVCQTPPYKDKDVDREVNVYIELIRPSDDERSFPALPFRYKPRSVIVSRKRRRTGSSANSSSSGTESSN
- protocol.details: protein-binding microarray (PBM); PBM: ~300 nM protein, 6 mM HEPES pH 7.8, 80 mM KCl, 0.5 mM EDTA, 0.5 mM EGTA, 6% glycerol, 35 ng/ul poly-dIdC, 1% milk, 1 h, room temperature; high values mean tight binding
- settings: dsDNA, one strand shown
Consider the cut-off 2 z-score. If the recorded binding signal is strictly smaller, the label is t; if not, the label is f.

>>> qualitative_label("CCGATTAACATCAAATATACCCATGATGTTAATCGGGTCTTGATTCGCTTGACGCTGCTG")
"f"
>>> qualitative_label("CCGATTAACATCAGGGATCTACCTGATGTTAATCGGGTCTTGATTCGCTTGACGCTGCTG")
"f"
>>> qualitative_label("CCGATTAACATCAACACCCCCCCTGATGTTAATCGGGTCTTGATTCGCTTGACGCTGCTG")
"f"
>>> qualitative_label("CCGATTAACATCACGTAGTTTCCTGATGTTAATCGGGTCTTGATTCGCTTGACGCTGCTG")
"t"
>>> qualitative_label("CCGATTAACATCAATTTTTCCCATGATGTTAATCGGGTCTTGATTCGCTTGACGCTGCTG")
"t"
>>> qualitative_label("CCGATTAACATCACGGGGAAAACTGATGTTAATCGGGTCTTGATTCGCTTGACGCTGCTG")
"f"
>>> qualitative_label("CCGATTAACATCAGAATTCCCCCTGATGTTAATCGGGTCTTGATTCGCTTGACGCTGCTG")
"f"
>>> qualitative_label("CCGATTAACATCACTGGGATTTCTGATGTTAATCGGGTCTTGATTCGCTTGACGCTGCTG")
"f"
>>> qualitative_label("CCGATTAACATCAGGAAATTTCCTGATGTTAATCGGGTCTTGATTCGCTTGACGCTGCTG")
"t"

----------
- target: GST-Nv-NF-kB (Cys allele) (Nematostella vectensis, UniProt E5G601 2-411)
- Sequence: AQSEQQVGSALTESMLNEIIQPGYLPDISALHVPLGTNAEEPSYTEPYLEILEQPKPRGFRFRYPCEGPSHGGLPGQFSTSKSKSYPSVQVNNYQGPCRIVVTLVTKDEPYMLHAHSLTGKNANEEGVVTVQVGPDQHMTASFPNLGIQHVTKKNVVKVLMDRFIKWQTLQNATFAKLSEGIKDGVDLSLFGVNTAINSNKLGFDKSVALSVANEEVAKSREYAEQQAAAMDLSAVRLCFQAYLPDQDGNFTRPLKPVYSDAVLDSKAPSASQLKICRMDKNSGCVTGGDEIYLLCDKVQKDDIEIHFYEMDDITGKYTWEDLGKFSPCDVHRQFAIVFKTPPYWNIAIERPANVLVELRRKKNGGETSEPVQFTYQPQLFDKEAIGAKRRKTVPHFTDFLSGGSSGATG
- protocol.details: protein-binding microarray (PBM); PBM: ~300 nM protein, 6 mM HEPES pH 7.8, 80 mM KCl, 0.5 mM EDTA, 0.5 mM EGTA, 6% glycerol, 35 ng/ul poly-dIdC, 1% milk, 1 h, room temperature; high values mean tight binding
- settings: dsDNA, one strand shown
measure.name: binding signal (z-score)

>>> val("CCGATTAACATCAGGGTAAAACCTGATGTTAATCGGGTCTTGATTCGCTTGACGCTGCTG")
3.16
>>> val("CCGATTAACATCACGGGTTTTTCTGATGTTAATCGGGTCTTGATTCGCTTGACGCTGCTG")
3.76
>>> val("CCGATTAACATCATAATCCCCCATGATGTTAATCGGGTCTTGATTCGCTTGACGCTGCTG")
6.81
>>> val("CCGATTAACATCAGGACAATCCCTGATGTTAATCGGGTCTTGATTCGCTTGACGCTGCTG")
2.68
>>> val("CCGATTAACATCAGGACACCCCCTGATGTTAATCGGGTCTTGATTCGCTTGACGCTGCTG")
5.22
>>> val("CCGATTAACATCAAGAATTTCCCTGATGTTAATCGGGTCTTGATTCGCTTGACGCTGCTG")
7.47
>>> val("CCGATTAACATCAGGAATTACCCTGATGTTAATCGGGTCTTGATTCGCTTGACGCTGCTG")
7.58
>>> val("CCGATTAACATCAGGGGTAACACTGATGTTAATCGGGTCTTGATTCGCTTGACGCTGCTG")
1.03
>>> val("CCGATTAACATCAGGTATTTTTATGATGTTAATCGGGTCTTGATTCGCTTGACGCTGCTG")
2.01
>>> val("CCGATTAACATCAGGGCATACCCTGATGTTAATCGGGTCTTGATTCGCTTGACGCTGCTG")
3.25
>>> val("CCGATTAACATCAAGTACGGGAATGATGTTAATCGGGTCTTGATTCGCTTGACGCTGCTG")
2.04
>>> val("CCGATTAACATCAGGCCACCCCCTGATGTTAATCGGGTCTTGATTCGCTTGACGCTGCTG")
2.49
>>> val("CCGATTAACATCACGGGGTTTTCTGATGTTAATCGGGTCTTGATTCGCTTGACGCTGCTG")
6.13
>>> val("CCGATTAACATCAAGGGGGGTTATGATGTTAATCGGGTCTTGATTCGCTTGACGCTGCTG")
4.63
>>> val("CCGATTAACATCAAATTACCCCCTGATGTTAATCGGGTCTTGATTCGCTTGACGCTGCTG")
5.57
>>> val("CCGATTAACATCATGTTAGGGAATGATGTTAATCGGGTCTTGATTCGCTTGACGCTGCTG")
3.63
>>> val("CCGATTAACATCAAGGAATTTTCTGATGTTAATCGGGTCTTGATTCGCTTGACGCTGCTG")
1.08
>>> val("CCGATTAACATCAAGGGGGAGAATGATGTTAATCGGGTCTTGATTCGCTTGACGCTGCTG")
6.63

----------
- target: GST-Dm-Relish (Drosophila melanogaster, UniProt Q94527 99-473)
- Sequence: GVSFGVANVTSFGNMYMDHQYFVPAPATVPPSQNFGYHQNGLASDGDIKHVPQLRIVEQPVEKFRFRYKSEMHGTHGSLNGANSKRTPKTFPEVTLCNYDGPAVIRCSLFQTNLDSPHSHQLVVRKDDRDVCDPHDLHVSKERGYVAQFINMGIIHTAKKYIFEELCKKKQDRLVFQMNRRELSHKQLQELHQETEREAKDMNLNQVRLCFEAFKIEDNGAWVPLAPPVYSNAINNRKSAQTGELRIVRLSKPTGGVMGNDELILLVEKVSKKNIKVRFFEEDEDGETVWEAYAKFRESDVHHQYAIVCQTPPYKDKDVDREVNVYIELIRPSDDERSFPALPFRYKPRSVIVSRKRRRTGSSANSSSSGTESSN
- protocol.details: protein-binding microarray (PBM); PBM: ~300 nM protein, 6 mM HEPES pH 7.8, 80 mM KCl, 0.5 mM EDTA, 0.5 mM EGTA, 6% glycerol, 35 ng/ul poly-dIdC, 1% milk, 1 h, room temperature; Ap Aiptasia and Nv Nematostella (sea anemones) / Co Capsaspora / Aq Amphimedon (sponge) / Dm Drosophila / Hu human; RHD is the Rel homology domain; high values mean tight binding
- settings: dsDNA, one strand shown
The entries below are paired with their reported binding signal.
measure.name: binding signal (z-score)

>>> val("CCGATTAACATCAGGGAAGCCCATGATGTTAATCGGGTCTTGATTCGCTTGACGCTGCTG")
8.29
>>> val("CCGATTAACATCAGACATCCCCCTGATGTTAATCGGGTCTTGATTCGCTTGACGCTGCTG")
5.06
>>> val("CCGATTAACATCACAAACTTCCCTGATGTTAATCGGGTCTTGATTCGCTTGACGCTGCTG")
3.48
>>> val("CCGATTAACATCAAACGTTCCCCTGATGTTAATCGGGTCTTGATTCGCTTGACGCTGCTG")
3.29
>>> val("CCGATTAACATCAAATCTCCCCCTGATGTTAATCGGGTCTTGATTCGCTTGACGCTGCTG")
4.14
